assay-procedure: Photophysical characterization (absorbance, emission, extinction coefficient, quantum yield)
Format: physicochemical
condition-set: Table 2
measurement-name: Φ
Output: the number by itself.

Worked examples follow.
{"cpd-smiles": "F[B-]1(F)n2c(-c3ccc(N4CCOCC4)cc3)cc(-c3ccccc3)c2N=C2C(c3ccccc3)=CC(c3ccc(N4CCOCC4)cc3)=[N+]21", "Φ": 0.085}
{"cpd-smiles": "CCCN(CCC)c1ccc(C2=[N+]3C(=Nc4c(-c5ccccc5)cc(-c5ccc([N+]([O-])(CCC)CCC)cc5)n4[B-]3(F)F)C(c3ccccc3)=C2)cc1", "Φ": 0.013}
{"cpd-smiles": "CN(C)c1ccc(C2=[N+]3C(=Nc4c(-c5ccccc5)cc(-c5ccc([N+](C)(C)[O-])cc5)n4[B-]3(F)F)C(c3ccccc3)=C2)cc1", "Φ": 0.021}
{"cpd-smiles": "CCCN(CCC)c1ccc(C2=[N+]3C(=Nc4c(-c5ccccc5)cc(-c5ccc(N(CCC)CCC)cc5)n4[B-]3(F)F)C(c3ccccc3)=C2)cc1", "Φ": 0.010}
{"cpd-smiles": "CCN(CC)c1ccc(C2=[N+]3C(=Nc4c(-c5ccccc5)cc(-c5ccc(N(CC)CC)cc5)n4[B-]3(F)F)C(c3ccccc3)=C2)cc1", "Φ": 0.013}

# context switch: different compound, same Φ
For reference, reported Φ for CCN(CC)c1ccc(-c2cc(-c3ccccc3)c3n2[B-](F)(F)[N+]2=C(c4ccc(OC)cc4)C=C(c4ccccc4)C2=N3)cc1 stands at 0.11

---

Below, each entry is listed with its recorded Φ.
assay-procedure: Photophysical characterization (absorbance, emission, extinction coefficient, quantum yield)
Type: physicochemical
condition-set: Table 2
Output: the number by itself.

Worked examples follow.
{"cpd-smiles": "F[B-]1(F)n2c(-c3ccc(N4CCCCC4)cc3)cc(-c3ccccc3)c2N=C2C(c3ccccc3)=CC(c3ccc(N4CCCCC4)cc3)=[N+]21", "Φ": 0.017}
{"cpd-smiles": "[O-][N+]1(c2ccc(-c3cc(-c4ccccc4)c4n3[B-](F)(F)[N+]3=C(c5ccc(N6CCCCC6)cc5)C=C(c5ccccc5)C3=N4)cc2)CCCCC1", "Φ": 0.011}
{"cpd-smiles": "CCN(CC)c1ccc(C2=[N+]3C(=Nc4c(-c5ccccc5)cc(-c5ccc([N+]([O-])(CC)CC)cc5)n4[B-]3(F)F)C(c3ccccc3)=C2)cc1", "Φ": 0.013}
{"cpd-smiles": "[O-][N+]1(c2ccc(-c3cc(-c4ccccc4)c4n3[B-](F)(F)[N+]3=C(c5ccc(N6CCOCC6)cc5)C=C(c5ccccc5)C3=N4)cc2)CCOCC1", "Φ": 0.049}
{"cpd-smiles": "CC[N+]([O-])(CC)c1ccc(-c2cc(-c3ccccc3)c3n2[B-](F)(F)[N+]2=C(c4ccc(OC)cc4)C=C(c4ccccc4)C2=N3)cc1", "Φ": 0.33}

# context switch: different compound, same Φ
For reference, reported Φ for CN(C)c1ccc(C2=[N+]3C(=Nc4c(-c5ccccc5)cc(-c5ccc(N(C)C)cc5)n4[B-]3(F)F)C(c3ccccc3)=C2)cc1 stands at 0.023

---

assay-procedure: Photophysical characterization (absorbance, emission, extinction coefficient, quantum yield)
Format: physicochemical
condition-set: Table 2
Below, each entry is listed with its recorded ε.

{"compound": "F[B-]1(F)n2c(-c3ccc(N4CCCCC4)cc3)cc(-c3ccccc3)c2N=C2C(c3ccccc3)=CC(c3ccc(N4CCCCC4)cc3)=[N+]21 [red-rHyP-4]", "ε": "7.6 × 10^4 M^−1 · cm^1"}
{"compound": "CCN(CC)c1ccc(-c2cc(-c3ccccc3)c3n2[B-](F)(F)[N+]2=C(c4ccc(OC)cc4)C=C(c4ccccc4)C2=N3)cc1 [Red-HyP-1]", "ε": "5.4 × 10^4 M^−1 · cm^1"}

For reference, reported ε for CN(C)c1ccc(C2=[N+]3C(=Nc4c(-c5ccccc5)cc(-c5ccc([N+](C)(C)[O-])cc5)n4[B-]3(F)F)C(c3ccccc3)=C2)cc1 [rHyP-2] stands at 4.6 × 10^4 M^−1 · cm^1

For reference, reported ε for CCN(CC)c1ccc(C2=[N+]3C(=Nc4c(-c5ccccc5)cc(-c5ccc(N(CC)CC)cc5)n4[B-]3(F)F)C(c3ccccc3)=C2)cc1 [red-rHyP-1] stands at 9.9 × 10^4 M^−1 · cm^1

For reference, reported ε for [O-][N+]1(c2ccc(-c3cc(-c4ccccc4)c4n3[B-](F)(F)[N+]3=C(c5ccc(N6CCOCC6)cc5)C=C(c5ccccc5)C3=N4)cc2)CCOCC1 [rHyP-5] stands at 9.2 × 10^4 M^−1 · cm^1

For reference, reported ε for CCCN(CCC)c1ccc(C2=[N+]3C(=Nc4c(-c5ccccc5)cc(-c5ccc(N(CCC)CCC)cc5)n4[B-]3(F)F)C(c3ccccc3)=C2)cc1 [red-rHyP-3] stands at 9.3 × 10^4 M^−1 · cm^1

For reference, reported ε for CC[N+]([O-])(CC)c1ccc(-c2cc(-c3ccccc3)c3n2[B-](F)(F)[N+]2=C(c4ccc(OC)cc4)C=C(c4ccccc4)C2=N3)cc1 [HyP-1] stands at 1.5 × 10^4 M^−1 · cm^1

For reference, reported ε for CCN(CC)c1ccc(C2=[N+]3C(=Nc4c(-c5ccccc5)cc(-c5ccc([N+]([O-])(CC)CC)cc5)n4[B-]3(F)F)C(c3ccccc3)=C2)cc1 [rHyP-1] stands at 5.8 × 10^4 M^−1 · cm^1

For reference, reported ε for CN(C)c1ccc(C2=[N+]3C(=Nc4c(-c5ccccc5)cc(-c5ccc(N(C)C)cc5)n4[B-]3(F)F)C(c3ccccc3)=C2)cc1 [red-rHyP-2] stands at 8.2 × 10^4 M^−1 · cm^1

For reference, reported ε for F[B-]1(F)n2c(-c3ccc(N4CCOCC4)cc3)cc(-c3ccccc3)c2N=C2C(c3ccccc3)=CC(c3ccc(N4CCOCC4)cc3)=[N+]21 [red-rHyP-5] stands at 7.6 × 10^4 M^−1 · cm^1

For reference, reported ε for [O-][N+]1(c2ccc(-c3cc(-c4ccccc4)c4n3[B-](F)(F)[N+]3=C(c5ccc(N6CCCCC6)cc5)C=C(c5ccccc5)C3=N4)cc2)CCCCC1 [rHyP-4] stands at 9.1 × 10^4 M^−1 · cm^1

For reference, reported ε for CCCN(CCC)c1ccc(C2=[N+]3C(=Nc4c(-c5ccccc5)cc(-c5ccc([N+]([O-])(CCC)CCC)cc5)n4[B-]3(F)F)C(c3ccccc3)=C2)cc1 [rHyP-3] stands at 8.0 × 10^4 M^−1 · cm^1

---

assay-procedure: Photophysical characterization (absorbance, emission, extinction coefficient, quantum yield)
Format: physicochemical
condition-set: Table 2
Below, each entry is listed with its recorded λabs.
Return type: number; implicit unit nm.

Worked examples follow.
{"molecule": "CN(C)c1ccc(C2=[N+]3C(=Nc4c(-c5ccccc5)cc(-c5ccc([N+](C)(C)[O-])cc5)n4[B-]3(F)F)C(c3ccccc3)=C2)cc1 [rHyP-2]", "λabs / nm": 738}
{"molecule": "F[B-]1(F)n2c(-c3ccc(N4CCOCC4)cc3)cc(-c3ccccc3)c2N=C2C(c3ccccc3)=CC(c3ccc(N4CCOCC4)cc3)=[N+]21 [red-rHyP-5]", "λabs / nm": 758}
{"molecule": "CN(C)c1ccc(C2=[N+]3C(=Nc4c(-c5ccccc5)cc(-c5ccc(N(C)C)cc5)n4[B-]3(F)F)C(c3ccccc3)=C2)cc1 [red-rHyP-2]", "λabs / nm": 798}
{"molecule": "CC[N+]([O-])(CC)c1ccc(-c2cc(-c3ccccc3)c3n2[B-](F)(F)[N+]2=C(c4ccc(OC)cc4)C=C(c4ccccc4)C2=N3)cc1 [HyP-1]", "λabs / nm": 670}
{"molecule": "CCN(CC)c1ccc(C2=[N+]3C(=Nc4c(-c5ccccc5)cc(-c5ccc([N+]([O-])(CC)CC)cc5)n4[B-]3(F)F)C(c3ccccc3)=C2)cc1 [rHyP-1]", "λabs / nm": 749}
{"molecule": "[O-][N+]1(c2ccc(-c3cc(-c4ccccc4)c4n3[B-](F)(F)[N+]3=C(c5ccc(N6CCOCC6)cc5)C=C(c5ccccc5)C3=N4)cc2)CCOCC1 [rHyP-5]", "λabs / nm": 718}
{"molecule": "CCN(CC)c1ccc(C2=[N+]3C(=Nc4c(-c5ccccc5)cc(-c5ccc(N(CC)CC)cc5)n4[B-]3(F)F)C(c3ccccc3)=C2)cc1 [red-rHyP-1]", "λabs / nm": 818}
{"molecule": "CCCN(CCC)c1ccc(C2=[N+]3C(=Nc4c(-c5ccccc5)cc(-c5ccc(N(CCC)CCC)cc5)n4[B-]3(F)F)C(c3ccccc3)=C2)cc1 [red-rHyP-3]", "λabs / nm": 826}
{"molecule": "[O-][N+]1(c2ccc(-c3cc(-c4ccccc4)c4n3[B-](F)(F)[N+]3=C(c5ccc(N6CCCCC6)cc5)C=C(c5ccccc5)C3=N4)cc2)CCCCC1 [rHyP-4]", "λabs / nm": 748}
{"molecule": "F[B-]1(F)n2c(-c3ccc(N4CCCCC4)cc3)cc(-c3ccccc3)c2N=C2C(c3ccccc3)=CC(c3ccc(N4CCCCC4)cc3)=[N+]21 [red-rHyP-4]", "λabs / nm": 787}

For reference, reported λabs for CCN(CC)c1ccc(-c2cc(-c3ccccc3)c3n2[B-](F)(F)[N+]2=C(c4ccc(OC)cc4)C=C(c4ccccc4)C2=N3)cc1 [Red-HyP-1] stands at 760

For reference, reported λabs for CCCN(CCC)c1ccc(C2=[N+]3C(=Nc4c(-c5ccccc5)cc(-c5ccc([N+]([O-])(CCC)CCC)cc5)n4[B-]3(F)F)C(c3ccccc3)=C2)cc1 [rHyP-3] stands at 747

Data provenance: patent US11292803B2
